# Measurement description: thallium flux activation in parental CHO cells, counter-screen for KCNQ1 potentiator project (AID 493006);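 on activation: fluorescence ratio of max minus min over baseline after K+ and Tl+ depolarization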
# Measurement parameters: parental CHO-K1 cells, FluxOR thallium flux, at 10 µM
The source made the active and inactive calls.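 How the source made its calls: active means duplicate-averaged activation above buffer control mean plus 5 SD of those controls; inactive means the rest.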
Outcome codes: active, inactive

{"columns": ["Molecule", "Class"],
 "data": [
  ["COc1ccc(C2c3ccc4ccccc4c3Oc3ncn(CCCO)c(=N)c32)cc1OC (stereo not given)", "inactive"],
  ["Cc1ccc(C2c3c(-c4ccccc4O)n[nH]c3C(=O)N2Cc2ccncc2)cc1 (stereo not given)", "inactive"],
  ["COC(=O)C1CCCN1C(=O)COc1ccc(Br)cc1Cl (stereo not given)", "active"],
  ["Cc1cc(C(=O)N/N=C/c2cccs2)no1", "inactive"],
  ["Cc1[nH]n2c(=O)cc(C(C)(C)C)nc2c1-c1ccccc1", "active"]
]}

====

# Target or test system: Potassium voltage-gated channel subfamily KQT member 2 (Rattus norvegicus)
# Measurement description: rat KCNQ2 channel potentiation, selectivity assay for KCNQ1 potentiator project, KCNQ2-CHO-K1 cells (AID 493009);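 further: assay conditions were tuned for KCNQ1 rather than KCNQ2 modulators; signal is max minus min fluorescence divided by baseline after thallium stimulus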
# Measurement parameters: FluxOR thallium flux fluorescence, at 10 µM; hits give high values, scaled: buffer 0, activator control 100
Calls of active or inactive are those of the source.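 Rule for the calls: active = mean duplicate potentiation above the buffer control mean plus 5 SD of buffer wells; inactive = the rest.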

{"columns": ["Structure as smiles", "potentiation"],
 "data": [
  ["O=C(CN1C2=NCCCN2c2ccccc21)c1ccc2c(c1)OCO2", "inactive"],
  ["Cc1nc(NC(=S)NC(=O)c2cccs2)ccc1Br", "inactive"],
  ["CCCn1c(=S)[nH]c2ccc(C(F)(F)F)cc21", "inactive"],
  ["Clc1ccc(C2=Nn3c(nnc3-c3n[nH]c4c3CCC4)SC2)cc1Cl", "inactive"],
  ["O=C(NC(=S)NC1CCCCC1)c1ccc(Cl)cc1", "390% (active)"],
  ["S=c1[nH]cnc2scc(-c3ccc(Br)cc3)c12", "147% (active)"],
  ["CCSc1nc(=S)cc(C)[nH]1", "388% (active)"],
  ["O=c1c(O)c(-c2ccc3c(c2)OCO3)oc2ccccc12", "162% (active)"],
  ["COc1cnc(-c2ccccn2)nc1Oc1ccccc1Cl", "inactive"]
]}

====

# Tested on: transient receptor potential cation channel C4 beta (TRPC4), mouse
# Measurement description: activators of mouse TRPC4 channel, confirmation, cell-based, second round, Fluo4, HEK293 TRPC4beta/mu-opioid, 1 µM (AID 2461);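 on activation: 0% = wells without test compound as baseline of integrated fluorescence ratio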
# Measurement parameters: Fluo4 calcium fluorescence, at 1 µM; hits give high values
The source made the active and inactive calls.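 Rule for the calls: active = primary screen active and over 50% activation in each of two duplicate runs; inactive = the rest.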

{"columns": ["Compound", "activation"],
 "data": [
  ["COc1ccc(/C=C/C(=O)Nc2ccccc2C(=O)NCC(c2ccc(OC)cc2)N(C)C)cc1 (stereo unspecified)", "inactive"],
  ["CCN(CC)CCCOc1ccc(Cl)c(Cl)c1", "inactive"],
  ["O=C(Cn1c(-c2ccccc2)c[n+]2ccsc12)c1ccc(Br)cc1", "77% (active)"],
  ["O=C(NCc1ccccc1)C1=C[C@H](c2ccc3c(c2)OCO3)C[C@H](OCc2ccc(CO)cc2)O1", "inactive"],
  ["CN(C)CCCN(C(=O)c1ccc(S(=O)(=O)N(C)Cc2ccccc2)cc1)c1nc2cc3c(cc2s1)OCO3", "inactive"],
  ["CCN(CCCNS(=O)(=O)c1cc(-c2cc(C)no2)ccc1C)Cc1ccccc1", "96% (active)"],
  ["COC(=O)[C@@]1(Cc2ccc(F)cc2)[C@H]2c3cc(C(=O)N(C)C)n(CCc4ccccn4)c3C[C@H]2CN1C(=O)c1ccccc1", "inactive"],
  ["CCCN(CCC)CCCNC(=O)C1CCC(CNS(=O)(=O)c2cccc3nsnc23)CC1 (stereo unspecified)", "52% (active)"],
  ["Cc1ccc(C)c(OCCCCCn2ccnc2)c1", "inactive"],
  ["Cc1onc(-c2ccccc2)c1C(=O)NNC(=S)NC(=O)c1ccc(F)cc1", "inactive"],
  ["CCCc1c(O)nc(SCCN(CCC)CCC)[nH]c1=O", "inactive"]
]}

====

# Target or test system: Potassium voltage-gated channel subfamily KQT member 1 (Homo sapiens)
# Measurement description: KCNQ1 potassium channel inhibitors, confirmation, cell-based, Tl flux, duplicate (AID 588353);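 further: 0% = buffer control ratio and 100% = XE991 inhibitor control ratio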
# Measurement parameters: KCNQ1 cell line, FluxOR thallium flux fluorescence, at 10 µM
The list shows a part of the results. Active and inactive are the calls of the source.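 The calls were made as follows: active = primary screen active, with duplicate mean exceeding buffer control mean plus 3 SD of buffer wells (cut at about 28% in these data); inactive = the rest.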
Outcome codes: true (1) = active, false (0) = inactive

{"columns": ["Molecule", "Class"],
 "data": [
  ["Cc1cccc(-c2nc3ccc(C(=O)NCCN4CCN(C)CC4)cc3nc2-c2cccc(C)c2)c1", "true (1)"],
  ["Cc1ccc(-c2noc(CC(c3ccccc3)c3ccccc3)n2)cc1", "true (1)"],
  ["CCSc1nsc(NC(=O)Nc2cccc(C(C)=O)c2)n1", "true (1)"],
  ["Cc1nnc(SC(C(=O)Nc2cc(Cl)cc(Cl)c2)c2ccccc2)[nH]c1=O (stereo not drawn)", "true (1)"],
  ["COc1ccc(-c2cc(C(F)(F)F)nc(S(C)(=O)=O)n2)cc1OC", "true (1)"],
  ["CC1CCCN(C(C(=O)Nc2ccc(C(C)C)cc2)c2ccc3c(c2)OCO3)C1 (stereo not drawn)", "true (1)"],
  ["CCCC(=O)N1CCN(c2nnc(-c3ccc(C)cc3)c3ccccc23)CC1", "false (0)"],
  ["Cc1nc(Nc2ccc3c(c2)OCCO3)c2nnn(Cc3ccccc3Cl)c2n1", "true (1)"]
]}

====

# Measurement description: thallium flux activation in parental CHO cells, counter-screen for KCNQ1 potentiator project (AID 493006);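 on activation: fluorescence ratio of max minus min over baseline after K+ and Tl+ depolarization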
# Measurement parameters: parental CHO-K1 cells, FluxOR thallium flux, at 10 µM
Activity calls are given as the source filed them.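 How the source made its calls: active means duplicate-averaged activation above buffer control mean plus 5 SD of those controls; inactive means the rest.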
Outcome codes: active, inactive

{"columns": ["Molecule", "Class"],
 "data": [
  ["CCCN(CCC)Cc1c(C(=O)N/N=C/C(C)=C\\c2ccco2)nnn1-c1nonc1N", "inactive"],
  ["COc1ccccc1N1CCN(C(=O)C2CCN(C(=O)c3cccc(Cl)c3)CC2)CC1", "inactive"],
  ["COc1ccc(-c2nc(=S)c3ccc4ccccc4c3[nH]2)cc1", "active"],
  ["CCN(CC)S(=O)(=O)c1ccc(NC(=O)c2cccnc2Cl)c(NC(=O)c2cccnc2Cl)c1", "inactive"],
  ["COc1ccc(NC(=S)NCCC(c2ccccc2)c2ccccc2)c(OC)c1", "inactive"],
  ["CC(C)c1ccc(NC(=O)C2CC(=O)N=C(N)S2)cc1 (centres undefined)", "active"],
  ["Cc1cccc(NC(=O)c2cccnc2)c1", "inactive"],
  ["O=C(Nc1nnc(-c2ccco2)o1)c1ccc(Cl)cc1", "inactive"],
  ["CC(C)n1cc(NC(=O)c2cc(-c3ccccc3)on2)cn1", "active"]
]}

====

# Target or test system: Potassium voltage-gated channel subfamily KQT member 1 (Homo sapiens) (UniProt P51787)
# Sequence (P51787 whole entry, looked up): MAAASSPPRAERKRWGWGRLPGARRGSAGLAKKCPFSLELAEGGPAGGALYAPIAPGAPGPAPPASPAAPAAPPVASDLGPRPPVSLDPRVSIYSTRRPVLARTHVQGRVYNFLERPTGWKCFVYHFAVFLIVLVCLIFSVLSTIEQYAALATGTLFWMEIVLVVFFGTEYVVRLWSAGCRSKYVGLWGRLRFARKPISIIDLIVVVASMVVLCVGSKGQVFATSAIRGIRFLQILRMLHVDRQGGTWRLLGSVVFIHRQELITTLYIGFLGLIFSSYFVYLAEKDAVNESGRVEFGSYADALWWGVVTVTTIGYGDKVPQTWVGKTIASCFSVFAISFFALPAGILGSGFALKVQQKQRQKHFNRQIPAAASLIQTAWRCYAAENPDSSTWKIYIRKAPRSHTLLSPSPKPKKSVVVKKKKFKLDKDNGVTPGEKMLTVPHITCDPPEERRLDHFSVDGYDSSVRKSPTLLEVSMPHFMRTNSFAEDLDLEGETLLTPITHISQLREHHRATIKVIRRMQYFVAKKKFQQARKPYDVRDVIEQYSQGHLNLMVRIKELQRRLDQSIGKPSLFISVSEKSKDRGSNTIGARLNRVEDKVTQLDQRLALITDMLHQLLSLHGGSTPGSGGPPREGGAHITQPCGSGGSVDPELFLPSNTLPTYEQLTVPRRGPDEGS
# Measurement description: KCNQ1 potassium channel potentiators, confirmation, FluxOR thallium flux, CHO cells, duplicates (AID 493007);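 on Outcome: cells depolarized by a potassium plus thallium sulfate stimulus after compound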
# Measurement parameters: KCNQ1 cell line, FluxOR thallium flux fluorescence, at 10 µM, % of reference activator effect, buffer zero
Activity calls are given as the source filed them.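 How the source made its calls: active means potentiation averaged over duplicate wells exceeding buffer-only control mean by more than 3 SD; inactive means the rest.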
Outcome codes: active, inactive

{"columns": ["Molecule", "Class"],
 "data": [
  ["COc1cccc(-c2nnc(Nc3nc4c(F)cccc4s3)o2)c1", "active"],
  ["C=CCn1c(O)c(N=NC(=S)Nc2ccccc2F)c2cc(S(=O)(=O)N3CCOCC3)ccc21", "active"],
  ["CC1(C)CC(=O)C2=C(C1)N(c1cccc(Cl)c1)C(=O)NC2(C(F)(F)F)C(F)(F)F", "active"],
  ["NNc1nc2c(F)cc(F)cc2s1", "inactive"],
  ["Cc1ccc(Nc2c(-c3ccc(C)o3)nc3cnccn23)cc1", "inactive"],
  ["COc1ccc(CN2C(=O)C(C)S/C2=N/N=C/c2ccco2)cc1 (configuration not stated)", "inactive"],
  ["Cc1ccc(-c2nc(N)s[n+]2-c2ccccc2)cc1", "active"],
  ["Cc1cc(C)cc(-n2c(C)cc(/C=C3\\C(=N)N4N=C(CC(C)C)SC4=NC3=O)c2C)c1", "active"],
  ["Cc1ccc(O)c(C(=O)CC(=O)c2cccc(F)c2)c1", "active"],
  ["COc1cccc(C(=O)NNC(=O)C(=O)Nc2ccc(OC)cc2OC)c1", "active"],
  ["COc1ccc(C(=O)NC(=S)N2CCC(C)CC2)cc1Br", "active"],
  ["CN(C)c1ccc(C(=O)Nc2nnc(C3=COCCO3)o2)cc1", "inactive"],
  ["CC1CC(=S)Nc2ccccc2N1C(=O)Nc1ccccc1 (configuration not stated)", "inactive"],
  ["C=CCn1c(=S)[nH]c2ccc(Br)cc2c1=O", "active"],
  ["CCC(C)NC(=O)c1cc(Cl)c(NC(=O)C2=C(C)OCCS2)cc1OC (configuration not stated)", "inactive"],
  ["O=C(CSc1ccc2ccccc2n1)Nc1ccc(N2CCOCC2)cc1", "inactive"],
  ["O=C(Nc1ccncc1)c1ccc([N+](=O)[O-])cc1Cl", "inactive"]
]}
